- test: activity coefficient (dimensionless); of the first substance listed, at infinite dilution; xn = mol fraction of the nth substance listed
- run.conditions: 308.15 K; Liquid; Chromatography; x1 = 0
measured.attribute: activity coefficient
Note: the reply should be a number with no unit written.

Consider the compound shown here: CCCC(=O)CC [3-hexanone] + CCn1cc[n+](C)c1.N#C[B-](C#N)(C#N)C#N What is its recorded activity coefficient?
1.2

Item under review: c1ccccc1 [benzene] + CCn1cc[n+](C)c1.N#C[B-](C#N)(C#N)C#N . Reported activity coefficient?
1.15

Entry Cc1cccc(C)c1 [1,3-dimethylbenzene] + CCn1cc[n+](C)c1.N#C[B-](C#N)(C#N)C#N has what activity coefficient?
2.56
